Quick reference: HC10 (peptide concentration that caused 10% hemolysis) of the listed items.
- Tested on: sheep red blood cells (sRBCs)
- assayDetails: Hemolytic activity assay
- Type: cell-based
- testContext: 4% (v/v) sheep red blood cells in PBS, 1 h, 37 °C; 1 to 256 μM tested

CC[C@H](C)[C@H](NC(=O)[C@H](CCCCN)NC(=O)[C@H](CCCCN)NC(=O)[C@H](Cc1ccccc1)NC(=O)[C@H](CC(C)C)NC(=O)[C@H](CCCCN)NC(=O)[C@@H](N)CCCCN)C(=O)N[C@@H](Cc1c[nH]c2ccccc12)C(=O)N[C@@H](CCCCN)C(=O)N[C@@H](Cc1ccc(O)cc1)C(=O)N[C@@H](CC(C)C)C(N)=O >256 µM

// next item, HC10 (peptide concentration that caused 10% hemolysis) requested
Qu. # return recorded HC10 (peptide concentration that caused 10% hemolysis) for entry CC[C@H](C)[C@H](NC(=O)[C@H](CCCCN)NC(=O)[C@H](CCCCN)NC(=O)[C@H](Cc1c[nH]c2ccccc12)NC(=O)[C@H](CC(C)C)NC(=O)[C@H](CCCCN)NC(=O)[C@@H](N)CCCCN)C(=O)N[C@@H](CC(C)C)C(=O)N[C@@H](CCCCN)C(=O)N[C@@H](Cc1ccc(O)cc1)C(=O)N[C@@H](CC(C)C)C(N)=O
Ans. >256 µM
